Origin of measurements: PubChem BioAssay (NCI)

Assay: NCI Yeast Anticancer Drug Screen. Data for the wt1 strain (AID 149);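 also: 0% = growth of vehicle-treated wt1 cultures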
Conditions: S. cerevisiae wt1 strain (SPY 50644) growth inhibition; at 11.0 µM; hits give high values
Compounds without any hit were thinned out: in the full panel of roughly 79,000, 15% have a hit.
Readout: growth inhibition (%)
Please respond with the number in % and leave the unit unwritten.

Quick one: growth inhibition of CC1CCC(C2=CSC3CCCCC3N2)CC1 (configuration not stated) ?
3

Report growth inhibition for CCCCCCCCCCCCCCCCCCNc1nc(=O)n(C2CC(OP(=O)(O)OCC3OC(n4cc(F)c(=O)[nH]c4=O)CC3O)C(CO)O2)cc1F (configuration not stated) please.
-13

Entry "O=[N+]([O-])c1cc[n+]([O-])c(Cl)c1" has what growth inhibition?
-19

Need growth inhibition of "CNC(=O)OCc1c2ccncc2c(C)c2c1[nH]c1ccccc12" , thanks.
6

Name the recorded growth inhibition for "Nc1cc(Cl)ccc1Nc1ccccc1" .
-25

Can you share its growth inhibition? I mean this molecule: "CC(=O)O/N=C1C=C/C(=C(/C#N)c2ccccc2)C=C/1C"
24

Requested field: growth inhibition. Item: "Oc1ccc(N=Nc2ccc(Cl)cc2)cc1"
52

###

Experiment: NCI Yeast Anticancer Drug Screen. Data for the sgs1 strain (AID 173);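 also: 0% = growth of vehicle-only control cultures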
Settings: S. cerevisiae sgs1 mutant, at 100.0 µM
This is part of a sample that, as a whole, favours compounds with a hit. Of some 79,000 tested, about 15% had one in any assay. Active and inactive are the calls of the source. Cut-off read from the data, not from the text of the source: active = growth inhibition above about 70%; inactive = the rest.
Classes to choose from: active, inactive

O=C(NCCCCN1CC2CCCC2C1)C(C1CCCCC1)C1CCCCC1 (stereo not given); active

Dear all, I need the recorded test outcome for "CC1(C)CC(=O)C(/C=N/c2nc(-c3ccc(Br)cc3)cs2)=C(O)C1" , thank you.
active

Which outcome was assigned to CC(C(=O)N1C(=O)N(C(=O)C(C)C(O)c2ccccc2)C2CCCCC21)C(O)c1ccccc1 (stereo not given) in this test?
inactive

Assay result, entry "CCOC(=S)SSSC(=S)OCC" — outcome?
active

Please state the recorded outcome for this compound: "CCCNCC(=O)O[C@]1(CC)C(=O)OCc2c1cc1n(c2=O)Cc2cc3ccccc3nc2-1"
active

###

Test: NCI Yeast Anticancer Drug Screen. Data for the rad18 strain (AID 177)
Conditions: S. cerevisiae rad18 mutant growth inhibition; at 1.2 µM; hits give high values
About 79,000 compounds went through this panel and 15% of them were active in at least one assay; those are over-represented in the sample as a whole.
Readout: growth inhibition (%)
Numeric only. Scale: %

CCCCCCCCCCCCCCCCCCNc1nc(=O)n(C2CC(OP(=O)(O)OCC3OC(n4cc(F)c(=O)[nH]c4=O)CC3O)C(CO)O2)cc1F (stereo not given); 9
O=[N+]([O-])[O][Sn]([O][Sn]([O][N+](=O)[O-])([c]1ccccc1)[c]1ccccc1)([c]1ccccc1)[c]1ccccc1; -12
CN(C)CCCn1c2c3ccccc3ccc2c2oc(=O)c3ccccc3c21; -10

What value of measured growth inhibition is listed for "Cc1cccc(/C=N/NC(=S)NC2CCCCC2)n1" ?
-5

Param item = "CCC(/C=C/c1ccccc1)=N\Nc1ccc(Cl)cc1" ; retrieve measured growth inhibition.
-3

What value of growth inhibition has been recorded for this entry: "CCCCCCCN1C(=O)c2ccccc2C1=O"
-1

Give its growth inhibition value. Item: "O=C(CCCN1CCC(Nc2ccc(F)cc2)(c2nnnn2C2CCCCC2)CC1)c1ccc(F)cc1"
3

Give the measured growth inhibition of "COC(=O)c1cnc(Cl)c([N+](=O)[O-])c1" .
4

Recorded growth inhibition of "O=C(NCCCCN(CCCNC(=O)C(F)(F)F)Cc1ccccc1)C(F)(F)F" , please.
13

Please look up its growth inhibition: "O=[N+]([O-])c1ccc(S(=O)(=O)Cc2ccccc2)c([N+](=O)[O-])c1"
27

###

A collection of compounds and their measured growth inhibition
Test: NCI Yeast Anticancer Drug Screen. Data for the mlh1 strain (AID 171);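 also: 0% = growth of vehicle-treated control cultures of the same strain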
Conditions: S. cerevisiae mlh1 strain growth inhibition; at 11.0 µM; hits give high values
The panel holds about 79,000 compounds, 15% with a hit somewhere; the sample as a whole holds those more often.
Unit % implied. Number only.

c1cc(-c2sc(-c3ccncc3)c(-c3ccncc3)c2-c2ccncc2)ccn1; 7
CC1(c2ccccc2)O[C@@H]2C[C@H]3[C@@H]4CCC5=CC(=O)C=C[C@]5(C)[C@@]4(F)[C@@H](O)C[C@]3(C)[C@]2(C(=O)CO)O1 (stereo not given in full); 5
COc1cc([N+](=O)[O-])c2ncccc2c1Br; -3
O=C(Nc1ccc(Cl)cc1)c1cc2cc(N=Nc3ccccc3Cl)ccc2oc1=O; 38

What value of measured growth inhibition is listed for COc1ccc2c3c1OC(C)C31CC(=O)CCC1CC2 (stereo not given) ?
-3

###

Experiment: NCI Yeast Anticancer Drug Screen. Data for the mlh1 strain (AID 171);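 also: 0% = growth of vehicle-treated control cultures of the same strain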
Details: S. cerevisiae mlh1 strain growth inhibition; at 11.0 µM; hits give high values
About 79,000 compounds went through this panel and 15% of them were active in at least one assay; those are over-represented in the sample as a whole.
Readout: growth inhibition (%)
Express the result in % but write the number alone.

COc1ccc(C(C)c2cc3c(cc2OCC(C)=O)OCO3)cc1 (configuration not stated); -4

Item under review: "N#[N+]c1c([O-])c2ccccc2c2ccccc12" . Reported growth inhibition?
20

What value of measured growth inhibition is listed for "Nc1ccc2cc(Br)ccc2c1Br" ?
3

# growth inhibition lookup, item "O=C(O)/C=C\C(=O)Nc1ccc2c(c1)Cc1cc(Cl)ccc1-2"
1

Any idea what growth inhibition was measured for "O=S(=O)(NNc1ccccc1)c1ccccc1" ?
-2

Could you tell me which growth inhibition is on file for "CC1=NN(C(=O)c2ccccc2O)C(=O)/C1=C/c1ccco1" ?
71

What does the data say about its growth inhibition? Entry: "CC(C)(C)c1ccc2c(c1)C(=O)c1ccccc1C2=O"
-10

###

Assay: NCI Yeast Anticancer Drug Screen. Data for the rad50EPP+ strain (AID 151);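 also: 0% = growth of vehicle-treated control cultures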
Settings: S. cerevisiae rad50 mutant strain, at 11.0 µM, hits give high values
Compounds without any hit were thinned out: in the full panel of roughly 79,000, 15% have a hit.
The entries below are paired with their reported growth inhibition.
Please give a number only; it is taken to be in %.

Past entries and their recorded results:
CC1=COC2=C(C)C(=O)C(=O)c3c(C)ccc1c32; 19
OC1(c2ccccc2)C2CC=CC2C1(c1ccccc1)c1ccccc1 (centres undefined); 2
O=C(NOC(=O)c1ccc([N+](=O)[O-])cc1)c1ccc(Cl)cc1; 68
CC/C(=C(\c1ccccc1)c1ccc(OCC[N+](C)(C)C)cc1)c1ccccc1; 94

Param item = "CCOc1ccc2nc3ccccc3c(N)c2c1" ; retrieve measured growth inhibition.
21

Return reported growth inhibition; argument: "CCOP(=O)(OCC)/C(C#N)=C/c1ccc(-c2ccc(F)cc2F)o1"
3

I have this compound here, "CC(C)OP(=O)(OC(C)C)C(=NCCO)NNc1ccc([N+](=O)[O-])cc1" , and I need its recorded growth inhibition.
69

Can you share its growth inhibition? I mean this compound: O=CC1(F)CC1(c1ccccc1)c1ccccc1 (centres undefined)
5

Which measured growth inhibition value corresponds to O=C1SS(=O)c2ccccc21 (centres undefined) ?
7

Item under review: "CCC(=O)Nc1ccc(N=NN(C)C)cc1" . Reported growth inhibition?
-21

Quick one: growth inhibition for "Cc1ccc(S(=O)(=O)Nc2cccc3cccnc23)cc1" ?
16

###

Assay: NCI Yeast Anticancer Drug Screen. Data for the bub3 strain (AID 167)
Details: S. cerevisiae bub3 mutant strain, at 50.0 µM (retest, dose inferred, filed as 5.0), hits give high values
This is part of a sample that, as a whole, favours compounds with a hit. Of some 79,000 tested, about 15% had one in any assay.
Readout: growth inhibition (%)
The reply should contain only the number, in %.

Which value of growth inhibition has been reported for "COc1ccc(N=c2cc(-c3ccccc3)oc3ccccc23)cc1" in the records?
-85

Fill blank: measured growth inhibition of the molecule CCC(OC(C)=O)C1CC(C(C)C)CCC1C (stereo unspecified) is ____.
29

Value lookup for growth inhibition; key = "CCCCCCNCCCNc1c2cc(OC)ccc2nc2cccc([N+](=O)[O-])c12"
96

Can you share its growth inhibition? I mean this molecule: "CCOC(=O)/C(=C/c1cccc(Cl)c1)N(CC)CC"
90

Could you tell me which growth inhibition is on file for "CCN(CC)CCNc1ccc2nc(C)n3c4ccc(OC)cc4c(=O)c1c23" ?
39

Which growth inhibition is reported for this molecule? "O=C(C#Cc1ccccc1)/C=C/c1ccccc1"
53

###

Experiment: NCI Yeast Anticancer Drug Screen. Data for the rad50 strain (AID 155);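 also: 0% = growth of vehicle-only cultures of the same strain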
Details: S. cerevisiae rad50 strain growth inhibition; at 33.0 µM
This is part of a sample that, as a whole, favours compounds with a hit. Of some 79,000 tested, about 15% had one in any assay. Active and inactive are the calls of the source. Rule as the data show it: active = growth inhibition above about 70%; inactive = the rest.
Entry note: the call must match one of active, inactive

Reference set (5 entries):
CC1=CC(=C(c2ccc(N)c(C)c2)c2ccc(N)c(C)c2)C=CC1=N; inactive
N#CCC(=O)N/N=C(\c1ccccc1)C(c1ccccc1)C1(O)C(=O)Nc2c(Cl)ccc(Cl)c21 (stereo unspecified); inactive
O=C1C(CCSc2ccccc2)C(=O)N(c2ccccc2)C1c1ccccc1 (stereo unspecified); active
CCc1c(Cl)c(C)c(Cl)c(O)c1Cl; active
CCCCCCCCN1COCC(COc2ccccc2C)OC1 (stereo unspecified); inactive

Answer briefly: the call reported for "O=Cc1ccccc1C=O" in this assay.
inactive

Test call, this molecule: COc1cc2c(cc1O)[C@H](C)C(c1ccccc1OC)O2 (stereo partly specified)
inactive

Name the outcome recorded for "Cc1ccc(NC(Nc2ccc(C)cc2C)=C(C(Cl)=C(Cl)Cl)[N+](=O)[O-])c(C)c1" in the assay.
active

Tell me the recorded outcome of this test for O=C1CCC(Cc2ccccc2)CN1 (stereo unspecified) .
inactive

Test call for this molecule, please: O=C1NC(c2cccc(OCc3ccccc3)c2)Nc2ccccc21 (stereo unspecified)
inactive
